system: Bacillus cereus; test: Antibacterial activity against clinical isolate Bacillus cereus at […] degC measured after 24 hr by microdilution method; type: functional
Please respond with reported MIC for every item in the list.
The reply should be a number in µM, with the unit left off.

IN: # lookup: MIC of COc1cc(Cc2nnc(Nc3ccc(C(F)(F)F)cc3)s2)c(S(=O)(=O)N(C)C)cc1OC
OUT: 9.9

IN: Also CC1(C)S[C@@H]2[C@H](NC(=O)[C@H](N)c3ccccc3)C(=O)N2[C@H]1C(=O)O [AMPICILLIN] ?
OUT: 248

IN: Moving on to COc1cc(Cc2nnc(Nc3ccc([N+](=O)[O-])cc3)s2)c(S(=O)(=O)N2CCCC2)cc1OC
OUT: 19.8

IN: // same read-out, input: COc1cc(Cc2nnc(Nc3ccc([N+](=O)[O-])cc3)s2)c(S(=O)(=O)N2CCCCC2)cc1OC
OUT: 19.3

IN: Field entry: COc1cc(Cc2nnc(Nc3ccc(C(F)(F)F)cc3)s2)c(S(=O)(=O)N2CCCC2)cc1OC
OUT: 9.5

IN: Query COc1cc(Cc2nnc(Nc3ccc(Cl)cc3)s2)c(S(=O)(=O)N2CCCC2)cc1OC next
OUT: 20.2

IN: Further, for COc1cc(Cc2nnc(Nc3ccc(Cl)cc3)s2)c(S(=O)(=O)N2CCCCC2)cc1OC ?
OUT: 9.8

IN: Field entry: COc1cc(Cc2nnc(Nc3ccc(C(F)(F)F)cc3)s2)c(S(=O)(=O)N2CCN(C)CC2)cc1OC
OUT: 17.9

IN: Next compound: COc1cc(Cc2nnc(Nc3ccc(Cl)cc3)s2)c(S(=O)(=O)N2CCN(C)CC2)cc1OC
OUT: 19.1

IN: Now consider CN[C@@H]1[C@H](O[C@H]2[C@H](O[C@H]3[C@H](O)[C@@H](O)[C@H](N=C(N)N)[C@@H](O)[C@@H]3N=C(N)N)O[C@@H](C)[C@]2(O)C=O)O[C@@H](CO)[C@H](O)[C@H]1O [STREPTOMYCIN] .
OUT: 43

IN: Likewise for COc1cc(Cc2nnc(Nc3ccc(C(F)(F)F)cc3)s2)c(S(=O)(=O)N2CCCCC2)cc1OC ?
OUT: 9.2

IN: Next compound up: COc1cc(Cc2nnc(Nc3ccc(Cl)cc3)s2)c(S(=O)(=O)N(C)C)cc1OC
OUT: 10.7

IN: Now this one: COc1cc(Cc2nnc(Nc3ccccc3)s2)c(S(=O)(=O)N(C)C)cc1OC
OUT: 23

IN: // query: COc1cc(Cc2nnc(Nc3ccc([N+](=O)[O-])cc3)s2)c(S(=O)(=O)N(C)C)cc1OC
OUT: 10.5

IN: Then this compound: COc1cc(Cc2nnc(Nc3ccccc3)s2)c(S(=O)(=O)N2CCCC2)cc1OC
OUT: 10.9
